Tested on: Human immunodeficiency virus 1
ASSAY OVERVIEW: Antiviral activity against HIV-1 X4 expressing wild-type reverse transcriptase infected in human CD4+ T cells for 3 days by FACS analysis
Format: functional, organism-based
MEASUREMENT CONDITIONS: Human immunodeficiency virus 1, X4, T-cell, 72 h
Reported EC50 values follow for various compounds

MOL SMILES: N#C/C=C/c1cc(F)cc(Oc2ccc(F)cc2OCCn2ccc(=O)[nH]c2=O)c1
EC50 (nM): 2

MOL SMILES: N#C/C=C/c1cc(Cl)cc(Oc2ccccc2OCCn2ccc(=O)[nH]c2=O)c1
EC50 (nM): 5

MOL SMILES: N#Cc1cc2c(Oc3ccccc3OCCn3ccc(=O)[nH]c3=O)cccn2c1
EC50 (nM): 1

MOL SMILES: Cc1cc(/C=C/C#N)cc(C)c1Nc1ccnc(Nc2ccc(C#N)cc2)n1
EC50 (nM): 13
